Would you kindly list GPDH for each of these compounds?
# targetUnderTest: glycerol-3-phosphate dehydrogenase (GPDH) (Rattus norvegicus, UniProt P35571)
# Construct: The activity of GPDH in intact mitochondria (0.3 mg/mL) was measured; from tissue; host or cells: rat skeletal muscle mitochondria (Wistar, Harlan Laboratories)
# Sequence (P35571 43-727): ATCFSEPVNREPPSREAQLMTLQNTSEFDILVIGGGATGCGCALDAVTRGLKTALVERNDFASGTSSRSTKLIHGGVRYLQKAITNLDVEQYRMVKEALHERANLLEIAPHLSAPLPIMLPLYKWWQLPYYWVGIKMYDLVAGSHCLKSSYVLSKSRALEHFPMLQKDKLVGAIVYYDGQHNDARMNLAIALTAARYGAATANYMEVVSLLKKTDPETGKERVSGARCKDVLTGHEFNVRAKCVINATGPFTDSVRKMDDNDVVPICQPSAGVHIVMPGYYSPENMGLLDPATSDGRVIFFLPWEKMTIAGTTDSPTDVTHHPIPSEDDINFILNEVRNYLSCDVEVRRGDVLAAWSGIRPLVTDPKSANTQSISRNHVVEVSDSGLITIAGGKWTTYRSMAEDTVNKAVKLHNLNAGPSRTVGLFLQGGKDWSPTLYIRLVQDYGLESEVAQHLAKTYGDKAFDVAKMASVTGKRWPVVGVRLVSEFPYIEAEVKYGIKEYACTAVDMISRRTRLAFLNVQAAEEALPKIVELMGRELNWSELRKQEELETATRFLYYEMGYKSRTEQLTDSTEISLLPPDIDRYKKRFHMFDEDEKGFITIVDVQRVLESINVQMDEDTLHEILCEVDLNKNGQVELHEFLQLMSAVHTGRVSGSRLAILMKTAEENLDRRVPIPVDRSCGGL
# procedureText: High-throughput screen: ROS production from glycerol-3-phosphate dehydrogenase (GPDH)
# Type: biochemical
# testContext: Table 8; percent change in ROS from DMSO controls
Keep it simple and answer with nothing but the number.

stdin: Quote GPDH reported for COc1ccc(-c2ccccc2)cc1NCC1=CC[C@H]2C[C@@H]1C2(C)C please.
stdout: 2.6

stdin: Please report the measured GPDH for COc1cc(CN(CCN(C)C)Cc2ccccc2)cc(OC)c1
stdout: 0.5

stdin: Return reported GPDH. Input compound: CCN1CCN(C/C=C/c2ccc(N(C)C)cc2)CC1
stdout: −13.4

stdin: Write down GPDH measured for item Cc1ccc(NS(=O)(=O)c2ccc(C3CCCCC3)cc2)cc1
stdout: −2.3

stdin: Quote GPDH reported for O=[N+]([O-])c1ccc(Oc2ccc(S(=O)(=O)NC3CCCCC3)cc2)cc1 please.
stdout: 2.8
